experimental details: Pharmacokinetics of AE-PM components and their phase II metabolites in rat plasma after single oral administration (UHPLC-MS/MS, with and without sulfatase hydrolysis)
condition info: rat, plasma, po, 50 g/kg, MRT (0-∞), CCl4 group rats; oral AE-PM 50 g/kg; plasma; n = 6
measurement name: MRT inf (h)

{"compound": "Cc1cc(O[C@@H]2O[C@H](CO)[C@@H](O)[C@H](O)[C@H]2O)c2c(c1)C(=O)c1cc(O)cc(O)c1C2=O [E-glu, emodin-8-O-β-D-glucoside]", "unit tag": "h", "quantitative readout": 2.44}
{"compound": "Cc1cc(O)c2c(c1)C(=O)c1cc(O)cc(O)c1C2=O", "unit tag": "h", "quantitative readout": 1.23}
{"compound": "OC[C@H]1O[C@@H](Oc2c(O)cc(O)cc2/C=C/c2ccc(O)cc2)[C@H](O)[C@@H](O)[C@@H]1O", "unit tag": "h", "quantitative readout": 3.4}

* * *

experimental details: Pharmacokinetics of AE-PM components and their phase II metabolites in rat plasma after single oral administration (UHPLC-MS/MS, with and without sulfatase hydrolysis)
condition info: rat, plasma, po, 50 g/kg, t1/2z, Normal group rats; oral AE-PM 50 g/kg; plasma; n = 6
Some compounds, each annotated with its measured half-life.
measurement name: half-life (h)

{"compound": "COc1cc(O)c2c(c1)C(=O)c1cc(C)cc(O[C@@H]3O[C@H](CO)[C@@H](O)[C@H](O)[C@H]3O)c1C2=O [P-glu, physcion-8-O-β-D-glucoside]", "unit tag": "h", "quantitative readout": 11.3}
{"compound": "O=C1c2cccc(O)c2C(=O)c2c(O)cc(CO)cc21", "unit tag": "h", "quantitative readout": 3.54}
{"compound": "OC[C@H]1O[C@@H](Oc2c(O)cc(O)cc2/C=C/c2ccc(O)cc2)[C@H](O)[C@@H](O)[C@@H]1O", "unit tag": "h", "quantitative readout": 1.95}
{"compound": "COc1cc(O)c2c(c1)C(=O)c1cc(C)cc(O)c1C2=O", "unit tag": "h", "quantitative readout": 17}
